Test system: Plasmodium falciparum
Assay: NOVARTIS: Inhibition of Plasmodium falciparum W2 (drug-resistant) proliferation in erythrocyte-based infection assay
Format: functional, organism-based
Details: Plasmodium falciparum, W2; read-out: EC50
property.label: pEC50
One number for each entry, as −log10 of the molar value.

{"smiles.notation": "COc1ccc(-n2c(CNc3cc(C(F)(F)F)ccc3Cl)nnc2SCc2ccccc2Cl)cc1", "assay.target": "Plasmodium falciparum", "property.label": "pEC50", "assay.result": 6.10}

Data request: Given the molecule CCC(=O)NNc1cc(N2CCCC2)nc(N2CCCC2)n1 , what is its reported pEC50?
Data returned: 6.12

----------
Test: NOVARTIS: Cytotoxicity against human hepatocellular carcinoma cell line (Huh7)
Type: toxicity, cell-based, Huh-7
Settings: Huh7 cells (hepatocellular carcinoma cell line)
Please respond with reported CC50 for every item in the list.

{"compound": "COc1ccccc1NC(=O)Cn1cnc2sc(C(=O)Nc3ccc(F)cc3)c(C)c2c1=O", "property.label": "CC50", "assay.result": "> 10 µM"}
{"compound": "CC1=C(C(=O)OC2CCCCC2)C(c2ccc(F)c(F)c2)C2=C(CCCC2=O)N1 (configuration not stated)", "property.label": "CC50", "assay.result": "> 100 µM"}
{"compound": "Cc1ccc(S(=O)(=O)Nc2nc3n(n2)C(c2ccccc2)C=C(c2ccccc2)N3)cc1 (configuration not stated)", "property.label": "CC50", "assay.result": "> 10 µM"}
{"compound": "COc1ccc(C(=O)n2nc(N)c3cc4ccc(C)cc4nc32)cc1[N+](=O)[O-]", "property.label": "CC50", "assay.result": "> 100 µM"}
{"compound": "Cc1ccc(NC(=O)CSc2nc3cc(C(=O)NCCCOC(C)C)ccc3c(=O)n2Cc2ccco2)cc1Cl", "property.label": "CC50", "assay.result": "> 10 µM"}

For the 7 compounds below, give their CC50 values.
1. Cc1cc(C)c2c(c1)OC(N)(C(Cl)(Cl)Cl)CC2=O (configuration not stated)
2. CCOC(=O)c1cn(CC)c2cc(N(C)CCc3ccc(OC)c(OC)c3)c(F)cc2c1=O
3. CCOC(=O)C1=C(C)NC2=C(C(=O)CC(c3ccc(Cl)cc3)C2)C1c1ccc(Cl)cc1 (configuration not stated)
4. CCC(C)N(CCC(=O)N1CCN(Cc2ccccc2)CC1)C(=O)Nc1cccc(Cl)c1Cl (configuration not stated)
5. CCOC(=O)C1CCN(C(c2cc3cc(OC)c(OC)cc3[nH]c2=O)c2nnnn2C(C)(C)C)CC1 (configuration not stated)
6. O=C(CSc1ccc2nnc(-c3cccs3)n2n1)Nc1ccccc1
7. COc1cc(C=CC(=O)Nc2c3c(nn2-c2ccc(F)cc2)CSC3)cc(OC)c1OC

Data returned:
["> 100 µM", "> 100 µM", "> 100 µM", "> 8.39 µM", "> 100 µM", "> 100 µM", "> 100 µM"]

----------
Provide the recorded CC50 for the entries that follow.
Assay: NOVARTIS: Cytotoxicity against human hepatocellular carcinoma cell line (Huh7)
Type: toxicity, cell-based, Huh-7
Settings: Huh7 cells (hepatocellular carcinoma cell line)

{"compound": "CC(NCCC(c1ccccc1)c1ccccc1O)c1ccccc1 (stereo not drawn)", "CC50": "> 10 µM"}
{"compound": "COc1ccc(-c2csc(Nc3cccc(Cl)c3C)n2)cc1OC", "CC50": "> 89.3 µM"}
{"compound": "O=C1C(=Cc2cc([N+](=O)[O-])cc(Br)c2O)C(=O)c2ccccc21", "CC50": "> 10 µM"}
{"compound": "CCOc1ccccc1CN1CCCC(C(=O)N2CCCCCC2)C1 (stereo not drawn)", "CC50": "37.4 µM"}
{"compound": "Cc1ccc(C(=O)N(CCc2ccccc2)C(C)c2nc3ccccc3c(=O)n2-c2cccc(Cl)c2C)cc1[N+](=O)[O-] (stereo not drawn)", "CC50": "> 10 µM"}

Your task in this section: give CC50 for each listed record.
1. O=C1Nc2ccc(Br)cc2C12NCCc1c2[nH]c2ccccc12 (stereo not drawn)
2. CC(Oc1ccc(Cl)cc1Cl)c1nc(-c2ccc(NC(=O)c3ccco3)cc2)no1 (stereo not drawn)
3. Oc1ccc2cc(-c3nc4ccccc4[nH]3)c3nc4ccccc4n3c2c1

Data returned:
1. 42.2 µM
2. 35.6 µM
3. > 10 µM

Please state CC50 for every compound in the list that follows.
1. CCCCC(=O)Oc1ccccc1-c1nc2cc(C)ccn2c1NC(C)(C)CC(C)(C)C
2. O=C(c1ccccc1)c1cc(Cl)ccc1NCCBr
3. COc1ccc2c(c1)OC(O)(C(F)(F)C(F)(F)F)CC2=O (stereo not drawn)
4. CCOC(=O)C1=C(C)N(c2ccc(OCC)cc2)C(=O)C1=Cc1ccc(C(C)C)cc1
5. Cc1ccccc1CSc1ccc(-c2cccs2)nn1

Data returned:
1: > 10 µM; 2: > 10 µM; 3: 49.7 µM; 4: > 100 µM; 5: > 10 µM
